# System: U251 CNS
# protocol_description: NCI-60 one-dose screen, 48 h (100 = growth as untreated, 0 = no growth, -100 = all killed)
# conditions: 10 µM unless noted
This is part of a sample that, as a whole, favours compounds with a hit. Of some 83,000 tested, about 20% had one in any assay.
Note to self: values exactly at 70% are Condition met. So growth at or above 70% is Condition met, below is Condition not met.

Here are 8 compounds together with their reported answers.
NCCCN(CCCN)CCCNCc1c2ccccc2c(CNCCCN(CCCN)CCCN)c2ccccc12 : Condition met
NC(=S)N/N=C\c1nccc2c(C(F)(F)F)cccc12 : Condition not met
COC1CC(C)C(OC)c2cc(O)cc(c2O)NC(=O)/C(C)=C/C=C\C(C)C(OC(N)=O)/C(C)=C\C(C)C1OC (stereo not given) : Condition not met
CN1CCC(c2ccccc2)(c2ccccc2)C(=O)C1 : Condition met
Oc1ccc(Br)cc1Sc1cc(Br)ccc1O : Condition not met
C[C@@]1(CO)[C@H](O)CC[C@@]2(C)[C@H]1CC[C@H]1C[C@@H]3C[C@@]12CC[C@@]3(O)COC(=O)CN : Condition not met
O=C1C(=O)c2cc([N+](=O)[O-])ccc2-c2ccccc21 : Condition not met
C[n+]1ccccc1C[n+]1ccccc1 : Condition met

Next:
In plain terms: is recorded growth at least 70% for `COC(=O)Nc1nc2ccc(C3(c4ccc(F)cc4)OCCO3)cc2[nH]1` ? Condition not met

All values here come from PubChem BioAssay (NCI).
